System: Mycobacterium tuberculosis Erdman (autoluminescent)
Experiment: FIC90 (Loewe) at 90% inhibition (log2); higher = more antagonistic
Details: in vitro model: butyrate; time point: constant (~7 days, model-specific)
Kindly supply the reported FIC90 values for the records listed here.

Prompt line: What measured FIC90 goes with O=[N+]([O-])c1cn2c(n1)OC[C@@H](OCc1ccc(OC(F)(F)F)cc1)C2 [pretomanid] + CO[C@H]1/C=C/O[C@@]2(C)Oc3c(C)c(O)c4c(O)c(c(/C=N/N5CCN(C6CCCC6)CC5)c(O)c4c3C2=O)NC(=O)/C(C)=C\C=C\[C@H](C)[C@H](O)[C@@H](C)[C@@H](O)[C@@H](C)[C@H](OC(C)=O)[C@@H]1C [rifapentine] ?
Response line: 0.357

Prompt line: Name the reported FIC90 value associated with the molecule CC(=O)NC[C@H]1CN(c2ccc(N3CCOCC3)c(F)c2)C(=O)O1 [linezolid] + CO[C@H]1/C=C/O[C@@]2(C)Oc3c(C)c(O)c4c(O)c(c(/C=N/N5CCN(C6CCCC6)CC5)c(O)c4c3C2=O)NC(=O)/C(C)=C\C=C\[C@H](C)[C@H](O)[C@@H](C)[C@@H](O)[C@@H](C)[C@H](OC(C)=O)[C@@H]1C
Response line: -0.305

Prompt line: Record request: FIC90 value, item CC(C)/N=c1\cc2n(-c3ccc(Cl)cc3)c3ccccc3nc-2cc1Nc1ccc(Cl)cc1 [clofazimine] + COc1c(N2C[C@@H]3CCCN[C@@H]3C2)c(F)cc2c(=O)c(C(=O)O)cn(C3CC3)c12 [moxifloxacin]
Response line: 1

---

Tested on: Mycobacterium tuberculosis Erdman (autoluminescent)
Test: GRinf, maximum normalised growth rate inhibition (three-drug combination) (unitless (-1 to 1)); higher = less effect (negative = killing)
Settings: in vitro model: intracellular J774; time point: constant = terminal
Exercise: for every item that follows, state its recorded GRinf.
Please state the value as a number alone, without comment.

Prompt line: For COc1nc2ccc(Br)cc2cc1[C@@H](c1ccccc1)[C@@](O)(CCN(C)C)c1cccc2ccccc12 [bedaquiline] + CC(C)/N=c1\cc2n(-c3ccc(Cl)cc3)c3ccccc3nc-2cc1Nc1ccc(Cl)cc1 [clofazimine] + CO[C@H]1/C=C/O[C@@]2(C)Oc3c(C)c(O)c4c(O)c(c(/C=N/N5CCN(C)CC5)c(O)c4c3C2=O)NC(=O)/C(C)=C\C=C\[C@H](C)[C@H](O)[C@@H](C)[C@@H](O)[C@@H](C)[C@H](OC(C)=O)[C@@H]1C [rifampicin] , what is its reported GRinf?
Response line: -0.213

Prompt line: Can you share its GRinf? I mean this compound: CC(C)/N=c1\cc2n(-c3ccc(Cl)cc3)c3ccccc3nc-2cc1Nc1ccc(Cl)cc1 [clofazimine] + NNC(=O)c1ccncc1 [isoniazid] + COc1c(N2C[C@@H]3CCCN[C@@H]3C2)c(F)cc2c(=O)c(C(=O)O)cn(C3CC3)c12 [moxifloxacin]
Response line: -0.424

Prompt line: Which GRinf value belongs to CC[C@@H](CO)NCCN[C@@H](CC)CO [ethambutol] + O=[N+]([O-])c1cn2c(n1)OC[C@@H](OCc1ccc(OC(F)(F)F)cc1)C2 [pretomanid] + CO[C@H]1/C=C/O[C@@]2(C)Oc3c(C)c(O)c4c(O)c(c(/C=N/N5CCN(C)CC5)c(O)c4c3C2=O)NC(=O)/C(C)=C\C=C\[C@H](C)[C@H](O)[C@@H](C)[C@@H](O)[C@@H](C)[C@H](OC(C)=O)[C@@H]1C [rifampicin] ?
Response line: -0.423

---

Tested on: Mycobacterium tuberculosis Erdman (autoluminescent)
Assay: GRinf, maximum normalised growth rate inhibition (three-drug combination) (unitless (-1 to 1)); higher = less effect (negative = killing)
Conditions: in vitro model: valerate; time point: constant (~7 days, model-specific)
Give measured GRinf for each item. Keep answers brief.
API note: the answer field is a bare number with no unit suffix.

Prompt line: # GRinf lookup, item CC(C)/N=c1\cc2n(-c3ccc(Cl)cc3)c3ccccc3nc-2cc1Nc1ccc(Cl)cc1 [clofazimine] + CC(=O)NC[C@H]1CN(c2ccc(N3CCOCC3)c(F)c2)C(=O)O1 [linezolid] + O=[N+]([O-])c1cn2c(n1)OC[C@@H](OCc1ccc(OC(F)(F)F)cc1)C2 [pretomanid]
Response line: -0.138

Prompt line: So what does the record say about GRinf for CC[C@@H](CO)NCCN[C@@H](CC)CO [ethambutol] + O=[N+]([O-])c1cn2c(n1)OC[C@@H](OCc1ccc(OC(F)(F)F)cc1)C2 [pretomanid] + CO[C@H]1/C=C/O[C@@]2(C)Oc3c(C)c(O)c4c(O)c(c(/C=N/N5CCN(C)CC5)c(O)c4c3C2=O)NC(=O)/C(C)=C\C=C\[C@H](C)[C@H](O)[C@@H](C)[C@@H](O)[C@@H](C)[C@H](OC(C)=O)[C@@H]1C [rifampicin] ?
Response line: 0.0174

Prompt line: // query GRinf value for entry CC(C)/N=c1\cc2n(-c3ccc(Cl)cc3)c3ccccc3nc-2cc1Nc1ccc(Cl)cc1 [clofazimine] + CC(=O)NC[C@H]1CN(c2ccc(N3CCOCC3)c(F)c2)C(=O)O1 [linezolid] + NC(=O)c1cnccn1 [pyrazinamide]
Response line: 0.241

---

Hi there, I'd appreciate the recorded total FIC50 for every entry that follows.
Test system: Mycobacterium tuberculosis Erdman (autoluminescent)
Experiment: total FIC50 (Loewe) at 50% inhibition, three-drug combination (log2); higher = more antagonistic
Settings: in vitro model: valerate; time point: constant (~7 days, model-specific)
Field format: numeric only.

Prompt line: Look up total FIC50 with Mycobacterium tuberculosis Erdman (autoluminescent) for this molecule: CC[C@@H](CO)NCCN[C@@H](CC)CO [ethambutol] + NC(=O)c1cnccn1 [pyrazinamide] + CO[C@H]1/C=C/O[C@@]2(C)Oc3c(C)c(O)c4c(O)c(c(/C=N/N5CCN(C)CC5)c(O)c4c3C2=O)NC(=O)/C(C)=C\C=C\[C@H](C)[C@H](O)[C@@H](C)[C@@H](O)[C@@H](C)[C@H](OC(C)=O)[C@@H]1C [rifampicin]
Response line: 0.23

Prompt line: Report total FIC50 for O=[N+]([O-])c1cn2c(n1)OC[C@@H](OCc1ccc(OC(F)(F)F)cc1)C2 [pretomanid] + NC(=O)c1cnccn1 [pyrazinamide] + CO[C@H]1/C=C/O[C@@]2(C)Oc3c(C)c(O)c4c(O)c(c(/C=N/N5CCN(C)CC5)c(O)c4c3C2=O)NC(=O)/C(C)=C\C=C\[C@H](C)[C@H](O)[C@@H](C)[C@@H](O)[C@@H](C)[C@H](OC(C)=O)[C@@H]1C [rifampicin] tested on Mycobacterium tuberculosis Erdman (autoluminescent).
Response line: 0.491

Prompt line: Test system Mycobacterium tuberculosis Erdman (autoluminescent); read-out total FIC50; what value for CC(C)/N=c1\cc2n(-c3ccc(Cl)cc3)c3ccccc3nc-2cc1Nc1ccc(Cl)cc1 [clofazimine] + CC[C@@H](CO)NCCN[C@@H](CC)CO [ethambutol] + CO[C@H]1/C=C/O[C@@]2(C)Oc3c(C)c(O)c4c(O)c(c(/C=N/N5CCN(C6CCCC6)CC5)c(O)c4c3C2=O)NC(=O)/C(C)=C\C=C\[C@H](C)[C@H](O)[C@@H](C)[C@@H](O)[C@@H](C)[C@H](OC(C)=O)[C@@H]1C [rifapentine] ?
Response line: 1.07

---

Test system: Mycobacterium tuberculosis Erdman (autoluminescent)
Assay: AUC25, normalised area under dose response up to IC25 (three-drug combination) (fraction (0-1)); higher = more potent at low dose
Conditions: in vitro model: standard 7H9 glycerol; time point: constant = terminal
MEASURED ATTRIBUTE: AUC25
Just the number, please, no unit after it.

Prompt line: Item CC[C@@H](CO)NCCN[C@@H](CC)CO [ethambutol] + NC(=O)c1cnccn1 [pyrazinamide] + CO[C@H]1/C=C/O[C@@]2(C)Oc3c(C)c(O)c4c(O)c(c(/C=N/N5CCN(C6CCCC6)CC5)c(O)c4c3C2=O)NC(=O)/C(C)=C\C=C\[C@H](C)[C@H](O)[C@@H](C)[C@@H](O)[C@@H](C)[C@H](OC(C)=O)[C@@H]1C [rifapentine] with Mycobacterium tuberculosis Erdman (autoluminescent) - AUC25?
Response line: 0.0407

Prompt line: Enter reported AUC25 observed with Mycobacterium tuberculosis Erdman (autoluminescent) for COc1nc2ccc(Br)cc2cc1[C@@H](c1ccccc1)[C@@](O)(CCN(C)C)c1cccc2ccccc12 [bedaquiline] + CC(=O)NC[C@H]1CN(c2ccc(N3CCOCC3)c(F)c2)C(=O)O1 [linezolid] + COc1c(N2C[C@@H]3CCCN[C@@H]3C2)c(F)cc2c(=O)c(C(=O)O)cn(C3CC3)c12 [moxifloxacin]
Response line: 0.0873

---

Test system: Mycobacterium tuberculosis Erdman (autoluminescent)
Assay: GRinf, maximum normalised growth rate inhibition (three-drug combination) (unitless (-1 to 1)); higher = less effect (negative = killing)
Conditions: in vitro model: standard 7H9 glycerol; time point: constant = terminal
Would you mind telling me the reported GRinf of each entry?
Please give only the number in your answer, with no unit.

Prompt line: Reported GRinf for CC(C)/N=c1\cc2n(-c3ccc(Cl)cc3)c3ccccc3nc-2cc1Nc1ccc(Cl)cc1 [clofazimine] + NNC(=O)c1ccncc1 [isoniazid] + NC(=O)c1cnccn1 [pyrazinamide] : what is it?
Response line: -0.135

Prompt line: # lookup: GRinf of CC(C)/N=c1\cc2n(-c3ccc(Cl)cc3)c3ccccc3nc-2cc1Nc1ccc(Cl)cc1 [clofazimine] + CC(=O)NC[C@H]1CN(c2ccc(N3CCOCC3)c(F)c2)C(=O)O1 [linezolid] + CO[C@H]1/C=C/O[C@@]2(C)Oc3c(C)c(O)c4c(O)c(c(/C=N/N5CCN(C6CCCC6)CC5)c(O)c4c3C2=O)NC(=O)/C(C)=C\C=C\[C@H](C)[C@H](O)[C@@H](C)[C@@H](O)[C@@H](C)[C@H](OC(C)=O)[C@@H]1C [rifapentine]
Response line: 0.00644

Prompt line: Entry under review: COc1nc2ccc(Br)cc2cc1[C@@H](c1ccccc1)[C@@](O)(CCN(C)C)c1cccc2ccccc12 [bedaquiline] + CC(C)/N=c1\cc2n(-c3ccc(Cl)cc3)c3ccccc3nc-2cc1Nc1ccc(Cl)cc1 [clofazimine] + O=[N+]([O-])c1cn2c(n1)OC[C@@H](OCc1ccc(OC(F)(F)F)cc1)C2 [pretomanid] . Reported GRinf?
Response line: -0.0799

Prompt line: Which GRinf value is on record for NNC(=O)c1ccncc1 [isoniazid] + CC(=O)NC[C@H]1CN(c2ccc(N3CCOCC3)c(F)c2)C(=O)O1 [linezolid] + CO[C@H]1/C=C/O[C@@]2(C)Oc3c(C)c(O)c4c(O)c(c(/C=N/N5CCN(C6CCCC6)CC5)c(O)c4c3C2=O)NC(=O)/C(C)=C\C=C\[C@H](C)[C@H](O)[C@@H](C)[C@@H](O)[C@@H](C)[C@H](OC(C)=O)[C@@H]1C [rifapentine] ?
Response line: 0.155

Prompt line: Would you kindly share the measured GRinf for CC[C@@H](CO)NCCN[C@@H](CC)CO [ethambutol] + CC(=O)NC[C@H]1CN(c2ccc(N3CCOCC3)c(F)c2)C(=O)O1 [linezolid] + COc1c(N2C[C@@H]3CCCN[C@@H]3C2)c(F)cc2c(=O)c(C(=O)O)cn(C3CC3)c12 [moxifloxacin] ?
Response line: -0.3

Prompt line: # get_value(readout='GRinf', item= CC(C)/N=c1\cc2n(-c3ccc(Cl)cc3)c3ccccc3nc-2cc1Nc1ccc(Cl)cc1 [clofazimine] + CC(=O)NC[C@H]1CN(c2ccc(N3CCOCC3)c(F)c2)C(=O)O1 [linezolid] + COc1c(N2C[C@@H]3CCCN[C@@H]3C2)c(F)cc2c(=O)c(C(=O)O)cn(C3CC3)c12 [moxifloxacin] )
Response line: -0.383

Prompt line: I have this molecule here, NNC(=O)c1ccncc1 [isoniazid] + CC(=O)NC[C@H]1CN(c2ccc(N3CCOCC3)c(F)c2)C(=O)O1 [linezolid] + O=[N+]([O-])c1cn2c(n1)OC[C@@H](OCc1ccc(OC(F)(F)F)cc1)C2 [pretomanid] , and I need its recorded GRinf.
Response line: 0.116

Prompt line: Consider the molecule CC[C@@H](CO)NCCN[C@@H](CC)CO [ethambutol] + COc1c(N2C[C@@H]3CCCN[C@@H]3C2)c(F)cc2c(=O)c(C(=O)O)cn(C3CC3)c12 [moxifloxacin] + CO[C@H]1/C=C/O[C@@]2(C)Oc3c(C)c(O)c4c(O)c(c(/C=N/N5CCN(C6CCCC6)CC5)c(O)c4c3C2=O)NC(=O)/C(C)=C\C=C\[C@H](C)[C@H](O)[C@@H](C)[C@@H](O)[C@@H](C)[C@H](OC(C)=O)[C@@H]1C [rifapentine] and give its measured GRinf.
Response line: 0.0179

Prompt line: // returns reported GRinf for input COc1nc2ccc(Br)cc2cc1[C@@H](c1ccccc1)[C@@](O)(CCN(C)C)c1cccc2ccccc12 [bedaquiline] + NNC(=O)c1ccncc1 [isoniazid] + COc1c(N2C[C@@H]3CCCN[C@@H]3C2)c(F)cc2c(=O)c(C(=O)O)cn(C3CC3)c12 [moxifloxacin]
Response line: -0.154

Prompt line: Param item = CC[C@@H](CO)NCCN[C@@H](CC)CO [ethambutol] + NC(=O)c1cnccn1 [pyrazinamide] + CO[C@H]1/C=C/O[C@@]2(C)Oc3c(C)c(O)c4c(O)c(c(/C=N/N5CCN(C)CC5)c(O)c4c3C2=O)NC(=O)/C(C)=C\C=C\[C@H](C)[C@H](O)[C@@H](C)[C@@H](O)[C@@H](C)[C@H](OC(C)=O)[C@@H]1C [rifampicin] ; retrieve measured GRinf.
Response line: 0.134

Prompt line: # get_value(readout='GRinf', item= NNC(=O)c1ccncc1 [isoniazid] + COc1c(N2C[C@@H]3CCCN[C@@H]3C2)c(F)cc2c(=O)c(C(=O)O)cn(C3CC3)c12 [moxifloxacin] + O=[N+]([O-])c1cn2c(n1)OC[C@@H](OCc1ccc(OC(F)(F)F)cc1)C2 [pretomanid] )
Response line: -0.202

Prompt line: Requested read-out: GRinf. Entry: COc1nc2ccc(Br)cc2cc1[C@@H](c1ccccc1)[C@@](O)(CCN(C)C)c1cccc2ccccc12 [bedaquiline] + CC(=O)NC[C@H]1CN(c2ccc(N3CCOCC3)c(F)c2)C(=O)O1 [linezolid] + CO[C@H]1/C=C/O[C@@]2(C)Oc3c(C)c(O)c4c(O)c(c(/C=N/N5CCN(C6CCCC6)CC5)c(O)c4c3C2=O)NC(=O)/C(C)=C\C=C\[C@H](C)[C@H](O)[C@@H](C)[C@@H](O)[C@@H](C)[C@H](OC(C)=O)[C@@H]1C [rifapentine]
Response line: -0.014

Taken from the supplement of paper PMC8617591.
